Data origin: patent US20240316022A1

# systemTested: FGFR1 (Homo sapiens, UniProt P11362)
# Construct: made in house; host or cells: E. coli derived from BL21, infected with T7 phage
# Sequence (P11362 22-822): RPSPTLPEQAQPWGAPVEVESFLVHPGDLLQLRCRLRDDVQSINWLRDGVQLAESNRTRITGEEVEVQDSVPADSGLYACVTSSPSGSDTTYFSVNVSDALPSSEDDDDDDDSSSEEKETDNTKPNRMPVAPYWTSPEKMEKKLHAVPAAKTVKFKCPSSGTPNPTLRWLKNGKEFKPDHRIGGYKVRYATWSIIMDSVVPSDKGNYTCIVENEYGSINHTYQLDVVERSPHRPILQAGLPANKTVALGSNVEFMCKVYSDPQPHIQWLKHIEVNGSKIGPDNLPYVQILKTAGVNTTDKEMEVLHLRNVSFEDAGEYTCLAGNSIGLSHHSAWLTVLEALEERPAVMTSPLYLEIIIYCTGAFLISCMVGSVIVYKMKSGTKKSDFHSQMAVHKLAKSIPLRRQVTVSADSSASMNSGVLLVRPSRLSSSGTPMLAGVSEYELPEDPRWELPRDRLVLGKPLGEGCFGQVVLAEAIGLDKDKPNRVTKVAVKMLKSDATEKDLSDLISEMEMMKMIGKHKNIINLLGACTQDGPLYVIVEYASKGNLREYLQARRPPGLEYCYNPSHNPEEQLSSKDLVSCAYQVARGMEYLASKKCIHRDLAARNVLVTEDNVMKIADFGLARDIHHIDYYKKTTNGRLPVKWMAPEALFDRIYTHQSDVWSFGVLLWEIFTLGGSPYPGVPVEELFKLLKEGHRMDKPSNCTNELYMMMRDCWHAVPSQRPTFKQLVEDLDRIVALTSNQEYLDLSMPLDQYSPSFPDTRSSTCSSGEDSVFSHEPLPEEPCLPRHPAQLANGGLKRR
# testDetails: Kinase binding assay (kinase-tagged T7 phage, qPCR), Kd
# recordedConditions: read-out: FGFR1 (Kd nM)
Field: Kd. Provide a value for each of the compounds that follow.

[in] # lookup: Kd of COc1cc2[nH]nc(-c3cc(C#N)c(OC)c(OC)c3)c2cc1O[C@H](C)c1c(C)cnnc1C
[out] 100 to 250 nM

[in] Which Kd is reported for this compound? COc1c(C)cc(-c2n[nH]c3ccc(O[C@H](C)c4c(Cl)cncc4Cl)cc23)cc1C#N
[out] 250 to 1000 nM

[in] What Kd value was documented for this compound, Cc1ncc(Cl)c([C@@H](C)Oc2ccc3[nH]nc(-c4ccc(N[C@H]5CCOC5)nc4)c3c2)c1Cl ?
[out] 0.1 to 100 nM

[in] What does the data say about its Kd? Entry: C[C@@H](Oc1ccc2[nH]nc(-c3ccnc(NCCO)c3)c2c1)c1c(Cl)cncc1Cl
[out] 0.1 to 100 nM

[in] I have this compound here, Cc1cnnc(C)c1[C@@H](C)Oc1ccc2[nH]nc(-c3cc(C#N)cc(C4CC4)c3)c2c1 , and I need its recorded Kd.
[out] 250 to 1000 nM

[in] Any idea what Kd was measured for CCOc1cc(OC)cc(-c2n[nH]c3ccc(O[C@H](C)c4c(C)cnnc4C)cc23)c1 ?
[out] > 1000 nM

[in] Record request: Kd value, item C[C@@H](Oc1ccc2[nH]nc(-c3ccc4c(c3)COC3(CCN(S(C)(=O)=O)CC3)O4)c2c1)c1c(Cl)cncc1Cl
[out] 0.1 to 100 nM

---

# systemTested: BCR-FGFR4 Ba/F3 (Homo sapiens, UniProt P22455)
# Construct: host or cells: Ba/F3; the other entry of the earlier key: BCR (P11274, Breakpoint cluster region protein)
# Sequence (P22455 467-755 limits assumed): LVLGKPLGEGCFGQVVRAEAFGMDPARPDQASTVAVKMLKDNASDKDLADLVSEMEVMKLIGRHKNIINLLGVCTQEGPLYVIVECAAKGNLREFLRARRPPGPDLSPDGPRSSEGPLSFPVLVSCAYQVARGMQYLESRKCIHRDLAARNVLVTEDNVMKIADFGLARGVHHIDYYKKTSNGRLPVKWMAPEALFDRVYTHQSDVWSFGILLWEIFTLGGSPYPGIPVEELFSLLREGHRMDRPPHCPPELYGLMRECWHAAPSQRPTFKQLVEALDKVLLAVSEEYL
# testDetails: Ba/F3 cell viability assay (CellTiter-Glo 2.0)
# Assay type: cell-based
# recordedConditions: Ba/F3 BCR-FGFR4 cells, 48 hours
Consider the following compounds; for each one, report its IC50.

[in] // lookup IC50 | system=BCR-FGFR4 Ba/F3 (Homo sapiens, UniProt P22455) | key= Cc1cnnc(C)c1[C@@H](C)Oc1ccc2[nH]nc(-c3cc(C#N)cc(OCCO)c3)c2c1
[out] 100 to 250 nM

[in] Provide the documented IC50 with BCR-FGFR4 Ba/F3 (Homo sapiens, UniProt P22455) as the system for Cc1ncccc1C(=O)N1CCOc2ncc(-c3n[nH]c4ccc(O[C@H](C)c5c(Cl)cncc5Cl)cc34)cc21
[out] > 1000 nM

[in] Field: IC50 (BCR-FGFR4 Ba/F3 (Homo sapiens, UniProt P22455)). Entry: COc1cc(C#N)cc(-c2n[nH]c3ccc(O[C@H](C)c4c(C)cnnc4C)cc23)c1
[out] 250 to 1000 nM

[in] Return IC50 measured with BCR-FGFR4 Ba/F3 (Homo sapiens, UniProt P22455) given this compound: C[C@@H](Oc1ccc2[nH]nc(-c3cnc(N)c(C#N)c3)c2c1)c1c(Cl)cncc1Cl
[out] 250 to 1000 nM

[in] Lookup: IC50 / BCR-FGFR4 Ba/F3 (Homo sapiens, UniProt P22455) / C[C@@H](Oc1ccc2[nH]nc(-c3cnc4c(c3)N(CCO)CCO4)c2c1)c1c(Cl)cncc1Cl
[out] 250 to 1000 nM

[in] Give the reported IC50 for C[C@@H](Oc1ccc2[nH]nc(-c3cnc4c(c3)N(C(=O)CCN(C)C)CCO4)c2c1)c1c(Cl)cncc1Cl (system: BCR-FGFR4 Ba/F3 (Homo sapiens, UniProt P22455)).
[out] 0.1 to 100 nM

[in] Entry Cc1ccc(C(=O)N2CCOc3ncc(-c4n[nH]c5ccc(O[C@H](C)c6c(Cl)cncc6Cl)cc45)cc32)cn1 , system BCR-FGFR4 Ba/F3 (Homo sapiens, UniProt P22455): what IC50 was measured?
[out] 250 to 1000 nM
